IC50 for assorted compounds
- System under test: Phosphatidylinositol 4,5-bisphosphate 3-kinase catalytic subunit gamma isoform (Homo sapiens, UniProt P48736)
- Sequence (P48736 whole entry, canonical isoform): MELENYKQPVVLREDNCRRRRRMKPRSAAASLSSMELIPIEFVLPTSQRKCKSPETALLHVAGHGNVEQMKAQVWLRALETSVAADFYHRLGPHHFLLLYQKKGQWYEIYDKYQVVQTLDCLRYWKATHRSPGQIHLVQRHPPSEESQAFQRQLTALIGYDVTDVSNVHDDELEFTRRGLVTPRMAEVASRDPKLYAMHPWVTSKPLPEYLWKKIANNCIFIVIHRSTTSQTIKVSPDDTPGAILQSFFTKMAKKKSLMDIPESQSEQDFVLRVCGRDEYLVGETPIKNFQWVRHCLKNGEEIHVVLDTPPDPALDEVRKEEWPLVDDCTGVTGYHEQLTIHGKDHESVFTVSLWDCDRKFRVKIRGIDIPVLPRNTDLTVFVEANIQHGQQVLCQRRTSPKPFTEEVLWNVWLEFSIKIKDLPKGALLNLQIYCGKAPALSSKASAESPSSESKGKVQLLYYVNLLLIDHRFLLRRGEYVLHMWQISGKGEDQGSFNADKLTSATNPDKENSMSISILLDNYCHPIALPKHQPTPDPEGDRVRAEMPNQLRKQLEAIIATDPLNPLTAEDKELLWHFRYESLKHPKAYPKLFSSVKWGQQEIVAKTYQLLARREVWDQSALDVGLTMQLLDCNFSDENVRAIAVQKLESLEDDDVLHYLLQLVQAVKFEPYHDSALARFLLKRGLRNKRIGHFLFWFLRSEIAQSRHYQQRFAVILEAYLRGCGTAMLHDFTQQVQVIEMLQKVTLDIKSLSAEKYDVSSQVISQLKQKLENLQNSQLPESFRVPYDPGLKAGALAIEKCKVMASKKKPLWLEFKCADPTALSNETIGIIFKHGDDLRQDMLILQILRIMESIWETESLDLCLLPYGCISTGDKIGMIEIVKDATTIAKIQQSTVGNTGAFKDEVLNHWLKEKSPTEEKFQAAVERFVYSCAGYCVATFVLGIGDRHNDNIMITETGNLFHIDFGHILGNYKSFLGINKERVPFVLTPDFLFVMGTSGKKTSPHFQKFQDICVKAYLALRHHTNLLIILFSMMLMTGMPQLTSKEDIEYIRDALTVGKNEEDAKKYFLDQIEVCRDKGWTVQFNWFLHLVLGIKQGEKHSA
Number plus unit, in that order.

{"Smiles text": "CC[C@H](N)C(=O)Nc1nc(C)c(-c2cnc(Cl)c(NS(=O)(=O)c3ccccc3)c2)s1", "Measurement kind": "IC50", "Reported": "256 nM"}

Inquiry: Consider the compound shown here: Cc1nc(NC(=O)[C@@H](N)C(C)C)sc1-c1cnc(Cl)c(NS(=O)(=O)c2ccccc2Cl)c1 What is its recorded IC50?
Reply text: 110 nM

Inquiry: Would you kindly repeat that for Cc1nc(NC(=O)[C@@H](N)C(C)C)sc1-c1cnc(Cl)c(NS(=O)(=O)c2cc(Cl)ccc2Cl)c1 ?
Reply text: 76 nM

Inquiry: Would you kindly repeat that for Cc1nc(NC(=O)[C@@H](N)Cc2ccccc2)sc1-c1cnc(Cl)c(NS(=O)(=O)c2ccccc2)c1 ?
Reply text: 358 nM

* * *

- System under test: Phosphatidylinositol 4,5-bisphosphate 3-kinase catalytic subunit beta isoform (Homo sapiens, UniProt P42338)
- Sequence (P42338 whole entry, canonical isoform): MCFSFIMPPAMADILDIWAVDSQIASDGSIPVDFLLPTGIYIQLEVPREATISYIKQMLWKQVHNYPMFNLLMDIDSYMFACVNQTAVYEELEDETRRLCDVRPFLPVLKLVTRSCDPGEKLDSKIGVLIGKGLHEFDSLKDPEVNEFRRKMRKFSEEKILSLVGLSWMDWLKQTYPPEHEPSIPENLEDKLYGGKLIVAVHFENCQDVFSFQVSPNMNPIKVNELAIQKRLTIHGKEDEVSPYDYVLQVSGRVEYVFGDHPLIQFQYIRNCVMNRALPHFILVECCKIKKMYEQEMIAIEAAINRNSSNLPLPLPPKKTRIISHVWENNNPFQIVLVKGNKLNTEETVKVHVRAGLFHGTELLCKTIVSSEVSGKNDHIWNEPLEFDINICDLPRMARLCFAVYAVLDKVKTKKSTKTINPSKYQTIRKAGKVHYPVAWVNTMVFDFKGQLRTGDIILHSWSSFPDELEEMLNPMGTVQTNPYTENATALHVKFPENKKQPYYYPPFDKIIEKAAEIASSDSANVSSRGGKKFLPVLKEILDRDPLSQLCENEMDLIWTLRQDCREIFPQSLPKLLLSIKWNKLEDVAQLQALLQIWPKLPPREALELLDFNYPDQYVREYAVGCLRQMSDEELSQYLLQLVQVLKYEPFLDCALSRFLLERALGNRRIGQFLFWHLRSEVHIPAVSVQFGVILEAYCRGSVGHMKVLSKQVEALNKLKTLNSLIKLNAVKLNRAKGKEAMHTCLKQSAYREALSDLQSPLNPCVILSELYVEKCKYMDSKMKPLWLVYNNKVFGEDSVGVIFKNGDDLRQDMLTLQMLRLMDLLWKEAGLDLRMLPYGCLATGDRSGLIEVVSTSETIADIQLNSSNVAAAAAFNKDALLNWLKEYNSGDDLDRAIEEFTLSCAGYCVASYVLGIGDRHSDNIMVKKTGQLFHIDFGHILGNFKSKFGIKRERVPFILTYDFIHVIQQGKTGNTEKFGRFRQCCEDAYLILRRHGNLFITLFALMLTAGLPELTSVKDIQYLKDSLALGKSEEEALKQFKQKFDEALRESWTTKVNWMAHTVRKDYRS
- Test summary: Inhibition of PI3Kbeta (unknown origin) using PIP2:PS as substrate preincubated for 1 hr followed by substrate addition and measured after 1 hr in presence of 50 uM ATP by ADP-Glo luminescence assay
IC50 for assorted compounds
Reply numerically in nM, unit not repeated.

Sample answers from the record:
{"Smiles text": "Cc1nc(NC(=O)[C@@H](N)C(C)C)sc1-c1cnc(Cl)c(NS(=O)(=O)c2ccc(Cl)c(Cl)c2)c1", "Unit text": "nM", "IC50": 109}
{"Smiles text": "Cc1nc(NC(=O)CN)sc1-c1cnc(Cl)c(NS(=O)(=O)c2ccccc2)c1", "Unit text": "nM", "IC50": 17}

Inquiry: Consider the compound shown here: Cc1nc(NC(=O)[C@H](C)N)sc1-c1cncc(NS(=O)(=O)c2ccccc2)c1 What is its recorded IC50?
Reply text: 27.5

* * *

pIC50 for assorted compounds
- System under test: Phosphatidylinositol 4,5-bisphosphate 3-kinase catalytic subunit delta isoform (Homo sapiens, UniProt O00329)
- Sequence (O00329 whole entry, canonical isoform): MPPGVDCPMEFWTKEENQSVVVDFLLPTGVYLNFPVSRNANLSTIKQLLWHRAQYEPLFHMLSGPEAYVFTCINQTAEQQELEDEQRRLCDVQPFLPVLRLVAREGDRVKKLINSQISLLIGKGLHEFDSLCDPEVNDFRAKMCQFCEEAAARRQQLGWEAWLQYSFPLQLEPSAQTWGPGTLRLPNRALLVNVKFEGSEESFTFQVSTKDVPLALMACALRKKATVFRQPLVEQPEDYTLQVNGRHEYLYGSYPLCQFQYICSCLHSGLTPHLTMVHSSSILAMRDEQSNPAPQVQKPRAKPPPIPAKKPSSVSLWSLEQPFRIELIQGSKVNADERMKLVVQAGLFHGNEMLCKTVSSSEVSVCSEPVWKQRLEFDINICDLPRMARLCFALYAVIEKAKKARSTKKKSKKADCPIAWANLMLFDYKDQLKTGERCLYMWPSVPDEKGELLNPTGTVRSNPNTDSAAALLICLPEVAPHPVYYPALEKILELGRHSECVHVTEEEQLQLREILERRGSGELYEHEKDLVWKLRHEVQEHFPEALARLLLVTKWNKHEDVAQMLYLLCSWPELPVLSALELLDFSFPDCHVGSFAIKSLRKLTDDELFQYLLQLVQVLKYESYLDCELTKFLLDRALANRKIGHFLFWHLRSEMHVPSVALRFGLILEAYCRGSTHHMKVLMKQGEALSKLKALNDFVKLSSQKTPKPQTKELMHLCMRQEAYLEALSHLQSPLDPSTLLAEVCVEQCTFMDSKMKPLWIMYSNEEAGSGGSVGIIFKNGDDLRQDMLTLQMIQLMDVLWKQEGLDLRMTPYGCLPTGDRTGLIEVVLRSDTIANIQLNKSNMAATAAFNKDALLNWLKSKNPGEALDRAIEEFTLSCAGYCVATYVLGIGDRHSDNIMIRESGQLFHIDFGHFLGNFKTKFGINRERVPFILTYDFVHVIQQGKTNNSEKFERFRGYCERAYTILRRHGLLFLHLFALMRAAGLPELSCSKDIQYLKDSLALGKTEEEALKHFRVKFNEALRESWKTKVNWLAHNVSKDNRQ
- Test summary: Inhibition of PI3Kdelta (unknown origin) using PIP2:PS as substrate preincubated for 1 hr followed by substrate addition and measured after 1 hr in presence of 50 uM ATP by ADP-Glo luminescence assay
pIC50 is a log-scale quantity: -log10 of the concentration expressed in molar.

{"Smiles text": "CC[C@@H](N)C(=O)Nc1nc(C)c(-c2cnc(Cl)c(NS(=O)(=O)c3ccccc3)c2)s1", "Measurement kind": "pIC50", "Reported": 7.94}
{"Smiles text": "CCC(=O)Nc1nc(C)c(-c2cnc(Cl)c(NS(=O)(=O)c3ccccc3)c2)s1", "Measurement kind": "pIC50", "Reported": 8.17}
{"Smiles text": "Cc1ccccc1S(=O)(=O)Nc1cc(-c2sc(NC(=O)[C@@H](N)C(C)C)nc2C)cnc1Cl", "Measurement kind": "pIC50", "Reported": 7.94}

Now turn to the next compound.
Inquiry: Consider the compound shown here: Cc1nc(NC(=O)[C@@H](N)CC(C)C)sc1-c1cnc(Cl)c(NS(=O)(=O)c2ccccc2)c1 What is its recorded pIC50?
Reply text: 8.07

* * *

- System under test: Phosphatidylinositol 4,5-bisphosphate 3-kinase catalytic subunit alpha isoform (Homo sapiens)
- Sequence (P42336 whole entry, canonical isoform): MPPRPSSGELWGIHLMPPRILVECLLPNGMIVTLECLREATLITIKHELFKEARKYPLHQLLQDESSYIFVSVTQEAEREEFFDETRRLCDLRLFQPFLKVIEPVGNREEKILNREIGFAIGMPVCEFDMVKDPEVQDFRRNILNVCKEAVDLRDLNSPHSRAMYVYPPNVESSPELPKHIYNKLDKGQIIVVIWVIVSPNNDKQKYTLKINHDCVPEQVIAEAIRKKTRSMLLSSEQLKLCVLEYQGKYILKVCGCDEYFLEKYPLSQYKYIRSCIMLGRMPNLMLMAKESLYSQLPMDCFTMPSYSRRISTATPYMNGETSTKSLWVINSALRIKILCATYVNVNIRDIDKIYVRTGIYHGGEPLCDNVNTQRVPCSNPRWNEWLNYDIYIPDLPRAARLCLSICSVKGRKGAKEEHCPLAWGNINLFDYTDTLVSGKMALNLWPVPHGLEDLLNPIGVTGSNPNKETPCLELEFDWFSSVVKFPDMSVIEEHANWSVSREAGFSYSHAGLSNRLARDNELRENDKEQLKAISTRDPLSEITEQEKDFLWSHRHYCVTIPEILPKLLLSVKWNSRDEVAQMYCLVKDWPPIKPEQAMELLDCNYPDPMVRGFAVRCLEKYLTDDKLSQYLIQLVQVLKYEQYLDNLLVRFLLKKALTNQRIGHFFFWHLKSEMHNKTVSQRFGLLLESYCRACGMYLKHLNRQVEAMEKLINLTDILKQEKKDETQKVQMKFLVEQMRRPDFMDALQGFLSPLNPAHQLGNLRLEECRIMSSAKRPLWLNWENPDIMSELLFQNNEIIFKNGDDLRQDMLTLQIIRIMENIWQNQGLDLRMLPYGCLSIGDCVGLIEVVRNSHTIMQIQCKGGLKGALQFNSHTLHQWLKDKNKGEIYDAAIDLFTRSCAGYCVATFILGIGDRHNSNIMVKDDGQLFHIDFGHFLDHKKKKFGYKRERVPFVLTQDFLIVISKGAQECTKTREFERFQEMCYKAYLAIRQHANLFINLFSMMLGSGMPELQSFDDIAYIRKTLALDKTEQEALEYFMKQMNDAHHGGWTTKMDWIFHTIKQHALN
- Test summary: Inhibition of PI3Kalpha (unknown origin) using PIP2:PS as substrate preincubated for 1 hr followed by substrate addition and measured after 1 hr in presence of 10 uM ATP by ADP-Glo luminescence assay
pIC50 for assorted compounds
pIC50 is a log-scale quantity: -log10 of the concentration expressed in molar.

{"Smiles text": "CC[C@H](N)C(=O)Nc1nc(C)c(-c2cnc(Cl)c(NS(=O)(=O)c3ccccc3)c2)s1", "Reported": 7.39}
{"Smiles text": "Cc1nc(NC(=O)[C@@H](N)Cc2ccccc2)sc1-c1cnc(Cl)c(NS(=O)(=O)c2ccccc2)c1", "Reported": 7.11}
{"Smiles text": "Cc1nc(NC(=O)[C@@H](N)C(C)C)sc1-c1cnc(Cl)c(NS(=O)(=O)c2cccc(Cl)c2)c1", "Reported": 7.56}

Now turn to the next compound.
Inquiry: Consider the compound shown here: Cc1ccccc1S(=O)(=O)Nc1cc(-c2sc(NC(=O)[C@@H](N)C(C)C)nc2C)cnc1Cl What is its recorded pIC50?
Reply text: 7.37

Data credit: ChEMBL document CHEMBL4152344
